experiment: Atovaquone solubility in pharmaceutical excipients; format: physicochemical; settings: Capmul (neat excipient), oil or lipid, thermodynamic from solid, in Capmul, 37° C.
Endpoint Name: solubility at 48 h (µg/mL)
Report as a plain number; the unit µg/mL is understood.

Fill in: solubility at 48 h of O=C1C(O)=C([C@H]2CC[C@H](c3ccc(Cl)cc3)CC2)C(=O)c2ccccc21 is ___ 3470

###

test: Atovaquone solubility in pharmaceutical excipients; type: physicochemical; details: Labrafil (neat excipient), oil or lipid, thermodynamic from solid, in Labrafil, 37° C.
Endpoint Name: solubility at 48 h (µg/mL)
Report as a plain number; the unit µg/mL is understood.

Fill in: solubility at 48 h of O=C1C(O)=C([C@H]2CC[C@H](c3ccc(Cl)cc3)CC2)C(=O)c2ccccc21 is ___ 3980
